Entry source: patent US20190389910A1

target: human recombinant integrin αvβ6 (αv extracellular domain-acidic leucine zipper-His×6 with β6 extracellular domain-basic leucine zipper) (human) (UniProt P06756); assay: BLI (Octet), antibody captured on anti-human IgG Fc (AHC) biosensor, integrin αvβ6 3.1-100 nM as analyte, divalent cations
Sequence (P06756 other isoform, or with tags, fused parts or gaps, chain 1 of 2): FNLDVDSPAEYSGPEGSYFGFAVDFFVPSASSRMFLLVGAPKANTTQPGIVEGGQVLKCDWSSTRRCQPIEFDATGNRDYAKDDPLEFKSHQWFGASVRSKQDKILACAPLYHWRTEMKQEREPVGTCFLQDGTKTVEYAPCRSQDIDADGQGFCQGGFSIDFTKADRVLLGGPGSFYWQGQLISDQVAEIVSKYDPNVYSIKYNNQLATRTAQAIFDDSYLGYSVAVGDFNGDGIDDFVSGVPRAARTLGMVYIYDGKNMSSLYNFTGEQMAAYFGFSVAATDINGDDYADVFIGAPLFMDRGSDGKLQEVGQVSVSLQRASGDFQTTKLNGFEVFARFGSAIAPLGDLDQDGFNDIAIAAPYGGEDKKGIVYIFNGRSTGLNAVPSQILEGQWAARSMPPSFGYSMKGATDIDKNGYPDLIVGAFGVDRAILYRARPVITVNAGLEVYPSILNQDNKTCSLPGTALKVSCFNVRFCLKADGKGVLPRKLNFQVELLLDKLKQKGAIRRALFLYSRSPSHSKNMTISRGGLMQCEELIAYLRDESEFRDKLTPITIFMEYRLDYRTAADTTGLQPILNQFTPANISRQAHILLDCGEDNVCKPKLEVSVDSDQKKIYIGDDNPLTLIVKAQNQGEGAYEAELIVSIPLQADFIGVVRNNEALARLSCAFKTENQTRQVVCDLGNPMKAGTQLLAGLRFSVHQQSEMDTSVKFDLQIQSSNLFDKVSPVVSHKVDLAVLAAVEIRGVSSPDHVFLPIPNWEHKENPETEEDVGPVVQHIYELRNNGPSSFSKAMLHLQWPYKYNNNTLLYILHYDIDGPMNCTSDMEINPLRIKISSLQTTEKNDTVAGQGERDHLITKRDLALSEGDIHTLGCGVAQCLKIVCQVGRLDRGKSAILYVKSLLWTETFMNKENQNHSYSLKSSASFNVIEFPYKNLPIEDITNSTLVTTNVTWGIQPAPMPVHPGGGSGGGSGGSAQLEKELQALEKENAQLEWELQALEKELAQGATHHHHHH
Sequence (chain, as listed by the source, chain 2 of 2): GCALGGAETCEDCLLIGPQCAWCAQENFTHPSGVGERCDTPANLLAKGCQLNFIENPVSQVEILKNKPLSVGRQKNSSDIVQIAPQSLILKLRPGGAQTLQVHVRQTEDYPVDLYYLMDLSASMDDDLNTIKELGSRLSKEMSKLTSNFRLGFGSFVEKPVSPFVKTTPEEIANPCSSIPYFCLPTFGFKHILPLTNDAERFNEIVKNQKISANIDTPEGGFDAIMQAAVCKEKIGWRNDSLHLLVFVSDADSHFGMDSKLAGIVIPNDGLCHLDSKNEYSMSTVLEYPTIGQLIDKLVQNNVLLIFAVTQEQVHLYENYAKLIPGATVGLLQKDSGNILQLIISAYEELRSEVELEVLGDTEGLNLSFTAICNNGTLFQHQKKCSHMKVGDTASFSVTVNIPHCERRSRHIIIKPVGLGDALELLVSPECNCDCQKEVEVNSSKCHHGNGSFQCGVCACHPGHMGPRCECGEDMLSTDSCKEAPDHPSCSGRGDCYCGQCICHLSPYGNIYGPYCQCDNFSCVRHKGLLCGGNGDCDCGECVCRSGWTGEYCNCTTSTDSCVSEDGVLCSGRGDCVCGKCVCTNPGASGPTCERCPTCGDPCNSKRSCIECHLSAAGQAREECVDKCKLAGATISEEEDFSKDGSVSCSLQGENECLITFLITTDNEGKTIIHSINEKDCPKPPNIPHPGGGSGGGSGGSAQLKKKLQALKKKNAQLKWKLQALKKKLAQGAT
Threshold 0.8 nM. Kd below it: Yes. Kd at it or above: No.

{"BINDER": "6#4-Ras03 (antibody, part only; not given: RT22 heavy chain, light constant, V domains shown, not shown: another chain or arm of the molecule; a dimerising Fc or GST, chain 1: disulfide bond Cys6-Cys16 closes the cyclic peptide) VL: ESFRPCQYRGDLFVLCFPSDMGSSSNDIQMTQSPSSLSASVGDRVTITCKSSQSLLNSRDGKNYLAWYQQKPGKAPKLLIYWASTRESGVPSRFSGSGSGTDFTLTISSLQPEDFATYFCQQYWYWMYTFGQGTKVEIK", "GROUP": "No"}
{"BINDER": "6#8-Ras03 (antibody, part only; not given: RT22 heavy chain, light constant, V domains shown, not shown: another chain or arm of the molecule; a dimerising Fc or GST, chain 1: disulfide bond Cys6-Cys16 closes the cyclic peptide) VL: FPNNQCQHRGDLFALCADMGSSSNDIQMTQSPSSLSASVGDRVTITCKSSQSLLNSRDGKNYLAWYQQKPGKAPKLLIYWASTRESGVPSRFSGSGSGTDFTLTISSLQPEDFATYFCQQYWYWMYTFGQGTKVEIK", "GROUP": "No"}
{"BINDER": "in4-Ras03 (antibody, part only; not given: RT22 heavy chain, light constant, V domains shown, not shown: another chain or arm of the molecule; a dimerising Fc or GST, chain 1: disulfide bond Cys6-Cys10 closes the in4 cyclic peptide) VL: DGVRQCRGDCFDGPLMGSSSNDIQMTQSPSSLSASVGDRVTITCKSSQSLLNSRDGKNYLAWYQQKPGKAPKLLIYWASTRESGVPSRFSGSGSGTDFTLTISSLQPEDFATYFCQQYWYWMYTFGQGTKVEIK", "GROUP": "No"}
{"BINDER": "6#6-Ras03 (antibody, part only; not given: RT22 heavy chain, light constant, V domains shown, not shown: another chain or arm of the molecule; a dimerising Fc or GST, chain 1: disulfide bond Cys6-Cys16 closes the cyclic peptide) VL: LGPLPCQTRGDLFSLCHYMGSSSNDIQMTQSPSSLSASVGDRVTITCKSSQSLLNSRDGKNYLAWYQQKPGKAPKLLIYWASTRESGVPSRFSGSGSGTDFTLTISSLQPEDFATYFCQQYWYWMYTFGQGTKVEIK", "GROUP": "No"}
{"BINDER": "6#2-Ras03 (antibody, part only; not given: RT22 heavy chain, constant regions, V domains shown, not shown: another chain or arm of the molecule; a dimerising Fc or GST; large carriers; small tags and cut ends, chain 1: disulfide bond Cys6-Cys16 closes the 6#2 cyclic peptide) VL: HVEFPCTRRGDLFVLCEGSMGSSSNDIQMTQSPSSLSASVGDRVTITCKSSQSLLNSRDGKNYLAWYQQKPGKAPKLLIYWASTRESGVPSRFSGSGSGTDFTLTISSLQPEDFATYFCQQYWYWMYTFGQGTKVEIK", "GROUP": "Yes"}
{"BINDER": "SFITGv6-Ras03 (antibody, part only; not given: RT22 heavy chain, constant regions, V domains shown, not shown: another chain or arm of the molecule; a dimerising Fc or GST; large carriers; small tags and cut ends, chain 1: disulfide bond Cys3-Cys13 closes the SFITGv6 cyclic peptide) VL: GRCTFRGDLMQLCYPDMGSSSNDIQMTQSPSSLSASVGDRVTITCKSSQSLLNSRDGKNYLAWYQQKPGKAPKLLIYWASTRESGVPSRFSGSGSGTDFTLTISSLQPEDFATYFCQQYWYWMYTFGQGTKVEIK", "GROUP": "Yes"}
